- measurement target: T1, lysozyme (Gallus gallus (Chicken)., UniProt P00698)
- T1 construct: lysozyme, ~15 kDa on SDS-PAGE
- T1 sequence (P00698 19-147): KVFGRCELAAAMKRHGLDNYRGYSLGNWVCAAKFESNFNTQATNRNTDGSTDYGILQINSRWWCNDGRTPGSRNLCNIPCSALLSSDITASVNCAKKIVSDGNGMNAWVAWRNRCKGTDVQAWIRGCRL
- method: pull-down; FLAG-tagged quenchbody from the crude IVTT mixture bound to anti-FLAG magnetic agarose beads, combined with 100 uL of 1 uM MBP or 10 uM lysozyme, 30 min, room temperature, 1200 rpm; 6 washes with PBS; eluted with 3x FLAG peptide; reducing SDS-PAGE; semi-quantitative comparison with the wild type
- condition context: one partner purified
measure: binding result

Answered examples (6):
INSERT INTO assay_data (binder, measure, measured_result) VALUES
  ('lysozyme quenchbody (Qb-Lys) Y27W/Y104W/Y110W (VHH, as the VHH of m2 (nanobody chain of PDB 1ZVH in the cassette) with the stated changes; also called triple mutant Y27W, Y104W, Y110W; source: NEBExpress cell-free E. coli protein synthesis (IVTT); captured on anti-FLAG magnetic beads from the crude IVTT mixture (pull-down)) VHH: DVQLVESGGGSVQAGGSLRLSCAASGWIASINYLGWFRQAPGKEREGVAAVSPAGGTPYYADSVKGRFTVSLDNAENTVYLQMNSLKPEDTALYYCAAARQGWWIPLNSWGYNYWGQGTQVTVSS', 'binding result', 'binds'),
  ('lysozyme quenchbody (Qb-Lys) W103Y (VHH, as the VHH of m2 (nanobody chain of PDB 1ZVH in the cassette) with the stated change; source: NEBExpress cell-free E. coli protein synthesis (IVTT); not shown: Cys-tag, N-terminal, kept) VHH: DVQLVESGGGSVQAGGSLRLSCAASGYIASINYLGWFRQAPGKEREGVAAVSPAGGTPYYADSVKGRFTVSLDNAENTVYLQMNSLKPEDTALYYCAAARQGYYIPLNSYGYNYWGQGTQVTVSS', 'binding result', 'binds'),
  ('lysozyme quenchbody (Qb-Lys) Y27W (VHH, as the VHH of m2 (nanobody chain of PDB 1ZVH in the cassette) with the stated change; source: NEBExpress cell-free E. coli protein synthesis (IVTT); not shown: Cys-tag, N-terminal, kept) VHH: DVQLVESGGGSVQAGGSLRLSCAASGWIASINYLGWFRQAPGKEREGVAAVSPAGGTPYYADSVKGRFTVSLDNAENTVYLQMNSLKPEDTALYYCAAARQGWYIPLNSYGYNYWGQGTQVTVSS', 'binding result', 'binds'),
  ('lysozyme quenchbody (Qb-Lys) Y104W (VHH, as the VHH of m2 (nanobody chain of PDB 1ZVH in the cassette) with the stated change; source: NEBExpress cell-free E. coli protein synthesis (IVTT); not shown: Cys-tag, N-terminal, kept) VHH: DVQLVESGGGSVQAGGSLRLSCAASGYIASINYLGWFRQAPGKEREGVAAVSPAGGTPYYADSVKGRFTVSLDNAENTVYLQMNSLKPEDTALYYCAAARQGWWIPLNSYGYNYWGQGTQVTVSS', 'binding result', 'binds'),
  ('lysozyme quenchbody (Qb-Lys) Y104W/Y110W (VHH, as the VHH of m2 (nanobody chain of PDB 1ZVH in the cassette) with the stated changes; Member of the ''single, pairwise, and triple Y27W, Y104W and Y110W mutants''; the combination is counted out from that phrase; also called pairwise mutant Y104W, Y110W; source: NEBExpress cell-free E. coli protein synthesis (IVTT); not shown: Cys-tag, N-terminal, kept) VHH: DVQLVESGGGSVQAGGSLRLSCAASGYIASINYLGWFRQAPGKEREGVAAVSPAGGTPYYADSVKGRFTVSLDNAENTVYLQMNSLKPEDTALYYCAAARQGWWIPLNSWGYNYWGQGTQVTVSS', 'binding result', 'binds'),
  ('lysozyme quenchbody (Qb-Lys) Y27W/Y110W (VHH, as the VHH of m2 (nanobody chain of PDB 1ZVH in the cassette) with the stated changes; Member of the ''single, pairwise, and triple Y27W, Y104W and Y110W mutants''; the combination is counted out from that phrase; also called pairwise mutant Y27W, Y110W; source: NEBExpress cell-free E. coli protein synthesis (IVTT); not shown: Cys-tag, N-terminal, kept) VHH: DVQLVESGGGSVQAGGSLRLSCAASGWIASINYLGWFRQAPGKEREGVAAVSPAGGTPYYADSVKGRFTVSLDNAENTVYLQMNSLKPEDTALYYCAAARQGWYIPLNSWGYNYWGQGTQVTVSS', 'binding result', 'binds');

Proceed to the following item.
Incoming: Complete the entry with binding result for lysozyme quenchbody (Qb-Lys) Y27W/Y104W (VHH, as the VHH of m2 (nanobody chain of PDB 1ZVH in the cassette) with the stated changes; Member of the 'single, pairwise, and triple Y27W, Y104W and Y110W mutants'; the combination is counted out from that phrase; also called pairwise mutant Y27W, Y104W; source: NEBExpress cell-free E. coli protein synthesis (IVTT); captured on anti-FLAG magnetic beads from the crude IVTT mixture (pull-down)) VHH: DVQLVESGGGSVQAGGSLRLSCAASGWIASINYLGWFRQAPGKEREGVAAVSPAGGTPYYADSVKGRFTVSLDNAENTVYLQMNSLKPEDTALYYCAAARQGWWIPLNSYGYNYWGQGTQVTVSS
Outgoing: binds
